System Tested: T1, EsCas13d, nuclease-dead (Eubacterium siraeum, UniProt B0MS50, R295A;H300A;R849A;H854A)
T1 sequence: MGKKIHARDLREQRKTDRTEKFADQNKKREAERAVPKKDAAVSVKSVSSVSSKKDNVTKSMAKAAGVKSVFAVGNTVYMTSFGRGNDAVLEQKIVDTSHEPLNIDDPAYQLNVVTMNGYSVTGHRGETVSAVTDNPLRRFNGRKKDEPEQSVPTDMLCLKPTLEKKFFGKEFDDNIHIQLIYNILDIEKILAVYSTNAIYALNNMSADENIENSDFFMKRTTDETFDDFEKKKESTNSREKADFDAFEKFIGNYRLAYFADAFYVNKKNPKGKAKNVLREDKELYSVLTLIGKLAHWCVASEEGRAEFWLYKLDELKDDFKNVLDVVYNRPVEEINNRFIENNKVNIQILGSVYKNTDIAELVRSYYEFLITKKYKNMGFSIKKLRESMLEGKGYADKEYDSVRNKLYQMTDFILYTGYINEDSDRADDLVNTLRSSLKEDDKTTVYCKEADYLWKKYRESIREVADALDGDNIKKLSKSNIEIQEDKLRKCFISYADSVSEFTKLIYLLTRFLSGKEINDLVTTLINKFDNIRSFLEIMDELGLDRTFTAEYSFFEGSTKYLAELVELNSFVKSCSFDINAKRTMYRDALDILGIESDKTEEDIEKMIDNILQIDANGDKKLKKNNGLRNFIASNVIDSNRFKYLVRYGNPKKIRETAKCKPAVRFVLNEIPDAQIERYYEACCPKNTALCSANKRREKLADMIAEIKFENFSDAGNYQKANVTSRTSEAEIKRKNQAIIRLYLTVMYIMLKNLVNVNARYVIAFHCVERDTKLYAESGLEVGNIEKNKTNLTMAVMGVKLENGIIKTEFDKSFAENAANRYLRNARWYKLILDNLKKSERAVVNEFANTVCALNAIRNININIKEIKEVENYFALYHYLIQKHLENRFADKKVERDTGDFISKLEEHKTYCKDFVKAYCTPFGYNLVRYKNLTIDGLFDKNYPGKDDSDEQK
Protocol Text: crRNA (strand 1, pre-loaded); Mg2+; 40 mM Tris-HCl pH 7.5, 150 mM NaCl, 6 mM MgCl2, 1 mM DTT, 0.1% Tween-20, 0.2 mg/ml BSA; 25 C; 10 min per concentration, then washed
Condition Context: tags: His6-TwinStrep-SUMO cleaved; N-terminal SNAP kept (SNAP-Surface 488); label: 3' end held by stalled T7 RNA polymerase
pKd: −log10 of the molar value.
Property Label: pKd

target 1 insG 3' of 19,insA 3' of 2 (mixed) RNA 1: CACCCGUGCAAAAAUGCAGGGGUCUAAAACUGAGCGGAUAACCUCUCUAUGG RNA 2: GGGAAUGGAUCCACAUCUACGAAUUCGUACCAUGAGAGAGGUUAUCCGCUCAACCGAGAUCGGAAGAGCACACGU    7.07
target 3 insU 3' of 5,insG 3' of 1 (mixed) RNA 1: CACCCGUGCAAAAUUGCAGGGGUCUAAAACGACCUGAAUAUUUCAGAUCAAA RNA 2: GGGAAUGGAUCCACAUCUACGAAUUCGUUUUUGAUCUGAAAUAUUCAUGGUCGUGCAGAUCGGAAGAGCACACGU    7.57
